Each recorded value in this set is attributed to the supplement of paper PMC9112550.

Test system: Escherichia coli TOP10;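 note: peptides expressed intracellularly from a pBAD plasmid library in pooled LB shake-flask culture, induced with 0.3% L-arabinose, DNA abundance read by NGS, three biological replicates, DESeq2 with apeglm shrinkage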
protocol details: shrunken log2 fold change of peptide-encoding DNA abundance (4.5 h post-induction vs induction); higher = less antimicrobial activity (less host growth inhibition)
condition set: time post-induction: 4.5 h; library: site-saturation at positions 5, 18, 19, 20
Binary call on shrunken log2 fold change: class 1 from 0.05 upward, class 0 beneath that.

Record excerpt, results attached:
[[record]]
residue_string = "RRIRVRPPRLPRPRPRPTAWPRP"
assigned_class = "class 1"

[[record]]
residue_string = "RRIRSRPPRLPRPRPRPWKWPRP"
assigned_class = "class 0"

[[record]]
residue_string = "RRIRCRPPRLPRPRPRPLICPRP"
assigned_class = "class 0"

[[record]]
residue_string = "RRIRRRPPRLPRPRPRPHMSPRP"
assigned_class = "class 0"

[[record]]
residue_string = "RRIRFRPPRLPRPRPRPAHSPRP"
assigned_class = "class 0"


Decide: shrunken log2 fold change of RRIRYRPPRLPRPRPRPHGYPRP >= 0.05? class 0

Decide: shrunken log2 fold change of RRIRLRPPRLPRPRPRPDWPPRP >= 0.05? class 0

Decide: shrunken log2 fold change of RRIRGRPPRLPRPRPRPELCPRP >= 0.05? class 1

Decide: shrunken log2 fold change of RRIRFRPPRLPRPRPRPHNVPRP >= 0.05? class 1

Decide: shrunken log2 fold change of RRIRWRPPRLPRPRPRPLWRPRP >= 0.05? class 1

Decide: shrunken log2 fold change of RRIRCRPPRLPRPRPRPPMAPRP >= 0.05? class 1

Decide: shrunken log2 fold change of RRIRIRPPRLPRPRPRPEWHPRP >= 0.05? class 0

Decide: shrunken log2 fold change of RRIRVRPPRLPRPRPRPMHWPRP >= 0.05? class 1

Decide: shrunken log2 fold change of RRIRFRPPRLPRPRPRPWLRPRP >= 0.05? class 0

Decide: shrunken log2 fold change of RRIRWRPPRLPRPRPRPIKQPRP >= 0.05? class 0
